- Target under test: PR-B (Homo sapiens, UniProt P06401)
- Test protocol: PR-B antagonism and agonism
- Run conditions: antagonist mode, read-out: Antagonismus IC50
Measured property: IC50 (nM)
Answer with a number only, understood to be in nM.

Please fill in: IC50 reported for C[C@]12CC[C@H]3[C@@H](CCC4=CC(=O)CC[C@@H]43)[C@@H]1CC[C@]2(F)/C=N/O = 0.339

* * *

- Target under test: PR-B (Homo sapiens, UniProt P06401)
- Sequence (P06401 1-933): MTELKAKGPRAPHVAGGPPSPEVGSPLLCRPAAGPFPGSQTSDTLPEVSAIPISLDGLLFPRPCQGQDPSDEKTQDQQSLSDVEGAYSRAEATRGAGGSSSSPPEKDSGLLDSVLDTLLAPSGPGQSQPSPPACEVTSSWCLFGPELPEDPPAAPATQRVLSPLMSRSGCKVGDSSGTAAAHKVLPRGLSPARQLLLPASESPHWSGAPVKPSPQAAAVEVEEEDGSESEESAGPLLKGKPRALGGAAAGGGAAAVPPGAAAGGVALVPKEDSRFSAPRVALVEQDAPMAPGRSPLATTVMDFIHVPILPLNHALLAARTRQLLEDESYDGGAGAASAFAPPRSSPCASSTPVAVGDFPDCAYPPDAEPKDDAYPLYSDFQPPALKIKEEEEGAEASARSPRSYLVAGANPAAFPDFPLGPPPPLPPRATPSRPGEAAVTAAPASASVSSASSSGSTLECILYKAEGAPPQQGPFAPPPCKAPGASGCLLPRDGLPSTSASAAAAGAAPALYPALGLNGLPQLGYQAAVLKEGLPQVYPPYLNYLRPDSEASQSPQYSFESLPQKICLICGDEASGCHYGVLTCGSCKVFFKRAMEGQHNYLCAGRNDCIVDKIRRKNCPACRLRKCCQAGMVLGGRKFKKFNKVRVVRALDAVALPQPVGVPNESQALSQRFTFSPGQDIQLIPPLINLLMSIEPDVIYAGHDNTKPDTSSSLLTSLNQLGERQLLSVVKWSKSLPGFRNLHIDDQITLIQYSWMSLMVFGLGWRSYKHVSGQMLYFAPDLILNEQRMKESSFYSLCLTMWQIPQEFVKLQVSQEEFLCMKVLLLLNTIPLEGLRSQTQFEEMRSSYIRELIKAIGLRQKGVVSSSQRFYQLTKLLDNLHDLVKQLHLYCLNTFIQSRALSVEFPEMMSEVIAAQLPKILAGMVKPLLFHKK
- Test protocol: PR-B antagonism and agonism
- Run conditions: agonist mode, read-out: Agonismus IC50
Measured property: EC50 (nM)
Answer with a number only, understood to be in nM.

Please fill in: EC50 reported for C[C@]12CC[C@H]3[C@@H](CCC4=CC(=O)CC[C@@H]43)[C@@H]1CC[C@]2(F)/C=N/O = 0.25
